assay: LNP size and polydispersity index (PDI) by dynamic light scattering (Zetasizer); format: physicochemical; details: Formulation No. 001, RNA No. 331
Please provide measured PDI for the entries that follow.
One number for each entry.

| Compound | PDI |
| --- | --- |
| CCCCC/C=C\C/C=C\CCCCCCCCOC(=O)NC(COC(=O)NCCN1CCCCCC1)C(=O)OCCCCCCCC(=O)OC(CCCCCCCC)CCCCCCCC (stereo not shown) | 0.04 |
| CCCCC/C=C\C/C=C\CCCCCCCCOC(=O)NC(COC(=O)NCCN1CCCCCC1)C(=O)OCCCCCCCCCC(=O)OCCCCCCC (stereo not shown) | 0.13 |
| CCCCC/C=C\C/C=C\CCCCCCCC(=O)NC(COC(=O)NCCN1CCCCC1)C(=O)OCCCCCC(=O)OCC(CCCCCCCC)CCCCCCCCCC (stereo not shown) | 0.05 |
| CCCCC/C=C\CCOC(=O)CCCCCOC(=O)C(COC(=O)NCCN1CCCCC1)NC(=O)OCCCCCCCCOC(=O)C(CCCCCC)CCCCCCCC (stereo not shown) | 0.01 |
| CCCCCCCCCC(=O)OCCCCCCCOC(=O)C(COC(=O)NCCN(C)C)NC(=O)OCCCCCCCCOC(=O)C(CCCCCC)CCCCCCCC (stereo not shown) | 0.04 |
| CCCCCCCCC(CCCCCC)C(=O)OCCCCCCCCOC(=O)NC(COC(=O)NCCN1CCCCCC1)C(=O)OCCCCCCCCCCC(=O)OCCCCCC (stereo not shown) | 0.01 |

With those in mind, consider the next compound.
What PDI value was documented for this compound, CCCCCCCCCC(=O)OCCCCCCCOC(=O)C(COC(=O)NCCN1CCCCCC1)NC(=O)OCCCCCCCCOC(=O)C(CCCCCC)CCCCCCCC (stereo not shown) ?
0.03
